Here the recorded MIC is given for each entry.
test system: H. influenzae PRC44; test: Test 1: Anti-Microbial Activities (MIC); assay type: cell-based; details: Haemophilus influenzae, Sensitivity Disk agar-N+5% Horse blood, inoculants 10^6 CFU/ml, read-out: minimum inhibiting concentrations (MIC)
Phrase the answer as number then unit, nothing more needed.

Worked examples, 7 molecules total:
| molecule | data-value |
| --- | --- |
| CSc1ncn2cc(C3=C(C(=O)[O-])N4C(=O)[C@H]([C@@H](C)O)[C@H]4[C@H]3C)sc12.[Na+] | 0.05 µg/mL |
| CCC(=O)c1ncn2cc(C3=C(C(=O)[O-])N4C(=O)[C@H]([C@@H](C)O)[C@H]4C3)sc12.[Na+] | 0.05 µg/mL |
| C[C@@H](O)[C@H]1C(=O)N2C(C(=O)[O-])=C(c3cn4cnc(S(C)(=O)=O)c4s3)[C@H](C)[C@H]12.[Na+] | 0.05 µg/mL |
| C[C@@H](O)[C@H]1C(=O)N2C(C(=O)[O-])=C(c3cn4cnc(S(=O)(=O)N(C)C)c4s3)[C@H](C)[C@H]12.[Na+] | 0.1 µg/mL |
| Cc1nc(S(C)(=O)=O)c2sc(C3=C(C(=O)[O-])N4C(=O)[C@H]([C@@H](C)O)[C@H]4[C@H]3C)cn12.[Na+] | 0.1 µg/mL |
| C[C@@H](O)[C@H]1C(=O)N2C(C(=O)[O-])=C(c3cn4cnc(C(=O)CO)c4s3)[C@H](C)[C@H]12.[Na+] | 0.05 µg/mL |
| C[C@@H](O)[C@H]1C(=O)N2C(C(=O)O)=C(SCCN=CN)C[C@H]12 [Compound A, imipenem, reference compound] | 12.5 µg/mL |

QUERY: What measured MIC goes with C[C@@H](O)[C@H]1C(=O)N2C(C(=O)[O-])=C(c3cn4cnc([S+](C)[O-])c4s3)[C@H](C)[C@H]12.[Na+] (some centres unmarked) ?
RESULT: 0.05 µg/mL
